Source of measurements: ChEMBL document CHEMBL3885861

# Species on record: Rattus norvegicus
# Method: Open TG-GATES - Regimen: Single
# Type: toxicity, organism-based, Sprague-Dawley
# Set-up: regimen Single, gender Male, age 6 weeks
# Experimental Parameters: in vivo, po, 1000 mg/kg, 24 h, tissue Blood, route gavage, dose level High
Parameter Measured: MCHC (%)
Provide the reading as a plain figure in %.

If you can, please state the reported MCHC value of CCOC(=O)CCC(=O)O[C@H]1[C@H](O[C@@H]2[C@@H](C)[C@H](O[C@H]3C[C@@](C)(OC)[C@@H](O)[C@H](C)O3)[C@@H](C)C(=O)O[C@H](CC)[C@@](C)(O)[C@H](O)[C@@H](C)C(=O)[C@H](C)C[C@@]2(C)O)O[C@H](C)C[C@@H]1N(C)C [ERYTHROMYCIN ETHYLSUCCINATE] .
33.2

Please give the result for NC(N)=Nc1nc(CSCCC(N)=NS(N)(=O)=O)cs1 too.
35.9

Please give the result for COc1ccc2[nH]c([S+]([O-])Cc3ncc(C)c(OC)c3C)nc2c1 (stereo not given) too.
34.1

Please give the result for COC1=CC(=O)C[C@@H](C)[C@]12Oc1c(Cl)c(OC)cc(OC)c1C2=O too.
33.4

Please give the result for CC(C)OC(=O)C(C)(C)Oc1ccc(C(=O)c2ccc(Cl)cc2)cc1 [FENOFIBRATE] too.
32.5

----------
Assign Cl to each entry below.
# Organism: Rattus norvegicus
# Method: Open TG-GATES - Regimen: Single
# Assay type: toxicity, organism-based, Sprague-Dawley
# Parameters: regimen Single, gender Male, age 6 weeks
# Experimental Parameters: in vivo, po, 0 mg/kg, 9 h, tissue Plasma, route gavage, dose level Control
Provide the reading as a plain figure in meq/L.

If you can, please state the reported Cl value of COC1=CC(=O)C[C@@H](C)[C@]12Oc1c(Cl)c(OC)cc(OC)c1C2=O [GRISEOFULVIN] .
103.6

Please give the result for C[C@@H]1C[C@H]2[C@@H]3CCC4=CC(=O)C=C[C@]4(C)[C@@]3(F)[C@@H](O)C[C@]2(C)[C@@]1(O)C(=O)CO [DEXAMETHASONE] too.
104

Please give the result for CC1=C(/C=C/C(C)=C/C=C/C(C)=C/CO)C(C)(C)CCC1 [RETINOL] too.
107.8

Please give the result for CN(C)CCN(Cc1cccs1)c1ccccn1 too.
106.8

Please give the result for NC(N)=Nc1nc(CSCCC(N)=NS(N)(=O)=O)cs1 [FAMOTIDINE] too.
102.8

Please give the result for CCOc1ccc(NC(=O)CC(C)O)cc1 (stereo unspecified) [BUCETIN] too.
106

Please give the result for COc1ccc2[nH]c([S+]([O-])Cc3ncc(C)c(OC)c3C)nc2c1 (stereo unspecified) [OMEPRAZOLE] too.
101

Please give the result for CC/C(=C(\c1ccccc1)c1ccc(OCCN(C)C)cc1)c1ccccc1 [TAMOXIFEN] too.
107.2

Please give the result for O=C(CCCN1CCC(O)(c2ccc(Cl)cc2)CC1)c1ccc(F)cc1 [HALOPERIDOL] too.
106.2

Please give the result for NNC(=O)c1ccncc1 [ISONIAZID] too.
104.6

Please give the result for Cc1ccc(C)c(OCCCC(C)(C)C(=O)O)c1 [GEMFIBROZIL] too.
107

----------
# Species: Rattus norvegicus
# Method: Open TG-GATES - Regimen: Single
# Assay type: toxicity, organism-based, Sprague-Dawley
# Design: regimen Single, gender Male, age 6 weeks
# Experimental Parameters: in vivo, po, 0 mg/kg, 9 h, tissue Kidney, route gavage, dose level Control
Assign KIDNEY_R to each entry below.
Provide the reading as a plain figure in g.

If you can, please state the reported KIDNEY_R value of CC/C(=C(\c1ccccc1)c1ccc(OCCN(C)C)cc1)c1ccccc1 .
0.8

Please give the result for NC(N)=Nc1nc(CSCCC(N)=NS(N)(=O)=O)cs1 too.
1

Please give the result for COc1cc2c(c(OC)c1OC)-c1ccc(OC)c(=O)cc1[C@@H](NC(C)=O)CC2 too.
1.1

Please give the result for CCCNC(=O)NS(=O)(=O)c1ccc(Cl)cc1 [CHLORPROPAMIDE] too.
0.9

Please give the result for CC(C)OC(=O)C(C)(C)Oc1ccc(C(=O)c2ccc(Cl)cc2)cc1 [FENOFIBRATE] too.
0.8

Please give the result for CCOC(=O)CCC(=O)O[C@H]1[C@H](O[C@@H]2[C@@H](C)[C@H](O[C@H]3C[C@@](C)(OC)[C@@H](O)[C@H](C)O3)[C@@H](C)C(=O)O[C@H](CC)[C@@](C)(O)[C@H](O)[C@@H](C)C(=O)[C@H](C)C[C@@]2(C)O)O[C@H](C)C[C@@H]1N(C)C [ERYTHROMYCIN ETHYLSUCCINATE] too.
1

Please give the result for CC1=C(/C=C/C(C)=C/C=C/C(C)=C/CO)C(C)(C)CCC1 too.
0.9

Please give the result for NNC(=O)c1ccncc1 too.
0.9

Please give the result for O=C(CCCN1CCC(O)(c2ccc(Cl)cc2)CC1)c1ccc(F)cc1 too.
0.9

Please give the result for Cc1ccc(C)c(OCCCC(C)(C)C(=O)O)c1 too.
0.9

Please give the result for CN1C(=O)CN=C(c2ccccc2)c2cc(Cl)ccc21 too.
1

Please give the result for CN(C)CCCN1c2ccccc2CCc2ccc(Cl)cc21 too.
1

Please give the result for COC1=CC(=O)C[C@@H](C)[C@]12Oc1c(Cl)c(OC)cc(OC)c1C2=O too.
0.9

Please give the result for CN(C)CCCN1c2ccccc2CCc2ccccc21 too.
0.9

Please give the result for CCOc1ccc(NC(=O)CC(C)O)cc1 (configuration not stated) too.
0.9

Please give the result for COc1ccc2[nH]c([S+]([O-])Cc3ncc(C)c(OC)c3C)nc2c1 (configuration not stated) too.
1

Please give the result for CN(C)CCN(Cc1cccs1)c1ccccn1 too.
0.8

----------
# Species: Rattus norvegicus
# Method: Open TG-GATES - Regimen: Single
# Assay type: toxicity, organism-based, Sprague-Dawley
# Design: regimen Single, gender Male, age 6 weeks
# Experimental Parameters: in vivo, po, 100 mg/kg, 24 h, tissue Plasma, route gavage, dose level Low
Parameter Measured: gamma-GTP (IU/L)
Provide the reading as a plain figure in IU/L.

If you can, please state the reported gamma-GTP value of CCOC(=O)CCC(=O)O[C@H]1[C@H](O[C@@H]2[C@@H](C)[C@H](O[C@H]3C[C@@](C)(OC)[C@@H](O)[C@H](C)O3)[C@@H](C)C(=O)O[C@H](CC)[C@@](C)(O)[C@H](O)[C@@H](C)C(=O)[C@H](C)C[C@@]2(C)O)O[C@H](C)C[C@@H]1N(C)C [ERYTHROMYCIN ETHYLSUCCINATE] .
1.4

Please give the result for NC(N)=Nc1nc(CSCCC(N)=NS(N)(=O)=O)cs1 too.
0.6

Please give the result for COC1=CC(=O)C[C@@H](C)[C@]12Oc1c(Cl)c(OC)cc(OC)c1C2=O too.
1.4

Please give the result for COc1ccc2[nH]c([S+]([O-])Cc3ncc(C)c(OC)c3C)nc2c1 (centres undefined) too.
1.2

----------
# Species on record: Rattus norvegicus
# Method: Open TG-GATES - Regimen: Daily Repeat
# Format: toxicity, organism-based, Sprague-Dawley
# Parameters: regimen Daily Repeat, gender Male, age 6 weeks
# Experimental Parameters: in vivo, po, 100 mg/kg, […], tissue Blood, route gavage, dose level Low, time 28 day
Assign Hb to each entry below.
Provide the reading as a plain figure in g/dL.

If you can, please state the reported Hb value of COC1=CC(=O)C[C@@H](C)[C@]12Oc1c(Cl)c(OC)cc(OC)c1C2=O .
15

Please give the result for CCOC(=O)CCC(=O)O[C@H]1[C@H](O[C@@H]2[C@@H](C)[C@H](O[C@H]3C[C@@](C)(OC)[C@@H](O)[C@H](C)O3)[C@@H](C)C(=O)O[C@H](CC)[C@@](C)(O)[C@H](O)[C@@H](C)C(=O)[C@H](C)C[C@@]2(C)O)O[C@H](C)C[C@@H]1N(C)C [ERYTHROMYCIN ETHYLSUCCINATE] too.
15.1

Please give the result for CCOc1ccc(NC(=O)CC(C)O)cc1 (stereo not given) too.
15.6

Please give the result for NC(N)=Nc1nc(CSCCC(N)=NS(N)(=O)=O)cs1 too.
15.5

Please give the result for COc1ccc2[nH]c([S+]([O-])Cc3ncc(C)c(OC)c3C)nc2c1 (stereo not given) too.
15.1

----------
# Species: Rattus norvegicus
# Method: Open TG-GATES - Regimen: Daily Repeat
# Assay type: toxicity, organism-based, Sprague-Dawley
# Parameters: regimen Daily Repeat, gender Male, age 6 weeks
# Experimental Parameters: in vivo, po, 100 mg/kg, […], tissue Blood, route gavage, dose level Low, time 28 day
Assign Eos to each entry below.
Provide the reading as a plain figure in %.

If you can, please state the reported Eos value of CCOc1ccc(NC(=O)CC(C)O)cc1 (stereo not given) .
1

Please give the result for CCOC(=O)CCC(=O)O[C@H]1[C@H](O[C@@H]2[C@@H](C)[C@H](O[C@H]3C[C@@](C)(OC)[C@@H](O)[C@H](C)O3)[C@@H](C)C(=O)O[C@H](CC)[C@@](C)(O)[C@H](O)[C@@H](C)C(=O)[C@H](C)C[C@@]2(C)O)O[C@H](C)C[C@@H]1N(C)C [ERYTHROMYCIN ETHYLSUCCINATE] too.
1.2

Please give the result for COc1ccc2[nH]c([S+]([O-])Cc3ncc(C)c(OC)c3C)nc2c1 (stereo not given) too.
1.2

Please give the result for COC1=CC(=O)C[C@@H](C)[C@]12Oc1c(Cl)c(OC)cc(OC)c1C2=O too.
1

Please give the result for NC(N)=Nc1nc(CSCCC(N)=NS(N)(=O)=O)cs1 too.
1.6
